- Tested on: ATP;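 further: ATP exposure 15 min at 22 °C before imaging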
- Test details: switch fluorescence ratio, 500 uM ATP over buffer (Cy3 cluster intensity, sum of 5 cycles each) (fold (ratio)); higher = stronger signal-on switching upon ATP binding; sequences stand for … in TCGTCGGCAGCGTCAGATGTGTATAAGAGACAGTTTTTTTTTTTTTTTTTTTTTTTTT…TC
- Measurement conditions: aptamer strand: ATP DNA aptamer (quencher-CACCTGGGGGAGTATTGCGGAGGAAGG + anchor), 100 nM annealed; ATP concentration: 500 uM
Assay endpoint: switch fluorescence ratio
Enter a number only.

Consider the reported switch fluorescence ratio for these sequences:
CAGGTAGATG 0.996
AGGGATCCTT 1.02
GGGGGGTAGA 1.02
ACACACCAGG 2.98
CATGAGGGGG 1.01

Record lookup: for ATP, what switch fluorescence ratio belongs to GATCAGCCCG ? 1.02

# get_value(readout= switch fluorescence ratio, system= ATP) for GGGGGGCTAA 0.984

###

switch fluorescence ratio values by entry
- System: ATP;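 further: ATP exposure 15 min at 22 °C before imaging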
- Test details: switch fluorescence ratio, 500 uM ATP over buffer (Cy3 cluster intensity, sum of 5 cycles each) (fold (ratio)); higher = stronger signal-on switching upon ATP binding; sequences stand for … in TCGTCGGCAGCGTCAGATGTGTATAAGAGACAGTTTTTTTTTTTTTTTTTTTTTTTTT…TC
- Measurement conditions: aptamer strand: ATP DNA aptamer (quencher-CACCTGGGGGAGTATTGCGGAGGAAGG + anchor), 100 nM annealed; ATP concentration: 500 uM
Lab note: record just the number, no unit beside it.

Known results for sequences:
ATAATAAGCT 1.02
ACACCTCCAA 1.04
TTCACGGTCG 1.03
GGTAGGAGAG 0.987
AGCAACCCCT 1.81
AAAGTGTGCG 1.01
AGCACTGGGA 1.04
GATGGGCTCG 0.988

# context switch: different sequence, same switch fluorescence ratio
Given the sequence CCCGAATATT , what is its reported switch fluorescence ratio? 1.06

###

Let's look at some sequences and their measured switch fluorescence ratio.
- Tested on: ATP;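 further: ATP exposure 15 min at 22 °C before imaging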
- Test details: switch fluorescence ratio, 500 uM ATP over buffer (Cy3 cluster intensity, sum of 5 cycles each) (fold (ratio)); higher = stronger signal-on switching upon ATP binding; sequences stand for … in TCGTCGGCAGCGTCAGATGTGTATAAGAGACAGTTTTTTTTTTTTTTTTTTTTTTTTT…TC
- Measurement conditions: aptamer strand: ATP DNA aptamer (quencher-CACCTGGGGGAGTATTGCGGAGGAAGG + anchor), 100 nM annealed; ATP concentration: 500 uM
Keep the answer to the number alone.

Using the record for TTTTGAGTCG , report its switch fluorescence ratio. 1.01

State the recorded switch fluorescence ratio for this entry: ACCGATCTCA 1.05

For TTAGGGGTTG , what is its reported switch fluorescence ratio? 0.979

###

- Tested on: ATP;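 further: ATP exposure 15 min at 22 °C before imaging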
- Test details: switch fluorescence ratio, 500 uM ATP over buffer (Cy3 cluster intensity, sum of 5 cycles each) (fold (ratio)); higher = stronger signal-on switching upon ATP binding; sequences stand for … in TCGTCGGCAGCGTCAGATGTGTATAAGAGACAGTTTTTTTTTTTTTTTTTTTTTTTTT…TC
- Measurement conditions: aptamer strand: ATP DNA aptamer (quencher-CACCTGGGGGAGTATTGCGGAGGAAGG + anchor), 100 nM annealed; ATP concentration: 500 uM
Assay endpoint: switch fluorescence ratio
Lab note: jot down the number only; don't add units.

AAGGAGGTTG 0.999
CGCTCTAATA 1.06
CGGGGTAGTC 0.967
TGCGTCAGGG 0.974
TAATTGT 0.976

# value lookup — system ATP, readout switch fluorescence ratio, item CGCACGAGGC 1.23

Kindly state the measured switch fluorescence ratio obtained for TTAAAAAGGG with ATP. 0.995

Tell me reported switch fluorescence ratio for TAGGGTTCGC , tested with ATP. 1.06

Return switch fluorescence ratio measured with ATP given this sequence: CCGGGGGGGA 1.13

Short answer please: switch fluorescence ratio, ATP, entry AAGGAGTATT 1.01

Under ATP: switch fluorescence ratio value of GGTAATGGTA ? 0.97

Please tell me: switch fluorescence ratio of AGTACTAGGA , system ATP? 0.993

API: value(readout= switch fluorescence ratio, system= ATP, query= ATAAAGAATG ) 1.01

Requested read-out switch fluorescence ratio, target or system ATP, entry CCGCTGGATA 1.51

Please state recorded switch fluorescence ratio (tested on ATP) of TGGAGGGGTT 1.02

Recorded switch fluorescence ratio for ACGGGCATCG with ATP, please? 1.02
